Assay: A qHTS for Small Molecule Inhibitors of Shiga Toxin
Conditions: Vero cells, Shiga toxin protein synthesis inhibition reporter; at 38.7 µM
The campaign covered roughly 290,000 compounds. About 27,000 (9.3%) were called active. Rule as the data show it: active = inhibition mostly above about 28% (no sharp cut-off); inactive = mostly below about 43%. The entries come from a sample that favours actives as a whole.
Answer with one of the outcomes given here: active, inactive

These solved cases illustrate the format of a correct answer.
CCn1c(SCC(=O)Nc2ccc3c(c2)OCCO3)nnc1C(C)C | inactive
CC(C)n1c(NCc2c[nH]c3ccccc23)nc2ccccc21 | inactive
N/C(=N\OC(=O)c1ccc2c(c1)OCO2)c1ccc(Br)cc1 | active
CCc1ccc(NC2Nc3cc(C)nn3S2)cc1 (stereo unspecified) | active
Cc1ccc(O)c(CNc2nc3ccccc3[nH]2)c1 | inactive

For `CC1CCN(C(=O)Cn2nnnc2CN2CCOCC2)CC1` , what call appears in the results of this test? inactive

For `COc1cnc(-c2ccccn2)nc1Oc1ccc(C(C)(C)C)cc1` , what call appears in the results of this test? inactive

For `Cc1ccc(O)c(CNc2nc3ccccc3n2C)c1` , what call appears in the results of this test? active

For `O=C(NCc1cccc(Cl)c1)C1CCN(c2nnc(N3CCCC3=O)s2)CC1` , what call appears in the results of this test? inactive

For `COc1ccccc1N1CCN(C(=O)c2cc(=O)c3cc(C)ccc3o2)CC1` , what call appears in the results of this test? inactive

For `Nc1ccccc1Sc1ccc(C(F)(F)F)cc1[N+](=O)[O-]` , what call appears in the results of this test? inactive

For `COC(=O)C1CCN(C(=O)c2cc(=O)[nH]c3ccccc23)CC1` , what call appears in the results of this test? inactive

For `Cc1occc1C(=O)Nc1nnc(C2CCCCC2)s1` , what call appears in the results of this test? active

====

Assay: A qHTS for Small Molecule Inhibitors of Shiga Toxin
Conditions: Vero cells, Shiga toxin protein synthesis inhibition reporter; at 38.7 µM
The campaign covered roughly 290,000 compounds. About 27,000 (9.3%) were called active. Cut-off read from the data, not from the text of the source: active = inhibition mostly above about 28% (no sharp cut-off); inactive = mostly below about 43%. The list comes from a sample in which actives are over-represented; it also holds close analogues and randomly drawn compounds.
Answer with one of the outcomes given here: 1 (active), -1 (inactive)

These solved cases illustrate the format of a correct answer.
CC(C)[C@H](NC(=O)N1CC(=O)Nc2ccccc21)C(=O)N[C@@H](Cc1c[nH]c2ccccc12)C(=O)O | -1
O=C(Nc1ccccc1C(=O)O)c1ccc(N2C(=O)C3CC=CCC3C2=O)cc1 (stereo not given) | -1

Proceed to the following item.
For `C=CCSc1nnc(NC(=O)c2ccc(NC(C)=O)cc2)s1` , what call appears in the results of this test? -1

====

Assay: A qHTS for Small Molecule Inhibitors of Shiga Toxin
Conditions: Vero cells, Shiga toxin protein synthesis inhibition reporter; at 38.7 µM
About 27,000 (9.3%) of roughly 290,000 compounds were called active. Cut-off read from the data, not from the text of the source: active = inhibition mostly above about 28% (no sharp cut-off); inactive = mostly below about 43%. This excerpt belongs to a sample that is enriched for actives. Where a SMILES comes first, the peptide text is derived from it.
Answer with one of the outcomes given here: label 1 for active, label 0 for inactive

CCOc1ccc(NC(=O)C/C(C)=N/NC(=O)Cc2cccs2)cc1 | label 0

For `CC(=O)Nc1cc2ccc(OC(C)=O)cc2oc1=O` , what call appears in the results of this test? label 0

For `CCn1c2ccccc2c2cc(NC(=O)C/C(C)=N/NC(=O)c3ccccc3N)ccc21` , what call appears in the results of this test? label 1

For `CC(=O)c1ccc(NC(=O)c2ccc(-n3cncn3)c([N+](=O)[O-])c2)cc1` , what call appears in the results of this test? label 0

For `O=C(Nc1cc2ccccc2oc1=O)C1CCCCC1` , what call appears in the results of this test? label 1

For `Cc1ccccc1NC(=O)C1CCN(C(=O)NC2CCCCC2)CC1` , what call appears in the results of this test? label 0

For `O=C(Nc1ccccc1-c1ccccc1)c1ccccc1[N+](=O)[O-]` , what call appears in the results of this test? label 0

For `CCc1ccc(N2CC(O)=C(c3nc4ccccc4c(=O)[nH]3)C2=N)cc1` , what call appears in the results of this test? label 0

For `CCN(C(=O)CSc1ncn[nH]1)c1cccc2ccccc12` , what call appears in the results of this test? label 0

For CC[C@H](C)[C@H](NC(=O)[C@H](Cc1cnc[nH]1)NC(=O)[C@@H](N)CCC(=O)O)C(=O)N1CCC[C@H]1C(=O)N[C@@H](C)C(=O)O (H-EHIPA-OH) , what call appears in the results of this test? label 0
